# Lookup of reported Average fluorescence intensity keyed by entry
# TARGET DESC: T1, Human CLDN18.2 (human, UniProt P56856-2 1-261)
# T1 construct: whole, on cells; also called human Claudin18.2; hCLDN18.2
# ASSAY OVERVIEW: FACS, hybridoma culture supernatant on CHO-human CLDN18.2 cells
The answer should be a number; do not append a unit.

Note to self: Average fluorescence intensity recorded for 5E6 (hybridoma clone, murine CLDN18.2 antigen-binding protein) (antibody, V domains shown, Murine monoclonal antibody tested as hybridoma culture supernatant) VH: EVQLQQSGPELVKPGASVKMSCKASGYTFTNYVMNWVKQKPGQGLEWIGYINPYNDGTKYNERFKGKATLTSDKSSSTAFMEVSSLTSEDSAVYYCARLYRGNAMDYWGQGTSVTVSS VL: DIVMTQSPSSLTVTVREKVTLSCKSSQSLLNSGNQKNYLTWYQQKPGQPPKLLIYWASTRESGVPDRFTGSGSGTDFTLTISSVQAEDLAVYYCQNVYIYPFTFGAGTKLELKR was 293000

Note to self: Average fluorescence intensity recorded for 14E12 (hybridoma clone, murine CLDN18.2 antigen-binding protein) (antibody, V domains shown, Murine monoclonal antibody tested as hybridoma culture supernatant) VH: EVQLQESGPELVKPGASVKMSCKASGYTFTNYIIHWVKQKPGQGLEWIGYINPYTDGPKYNEKFKGRATLTSDKSSSTAYMEFSSLTSEDSAVYYCARLNRGNAMDYWGQGTSVTVSS VL: DIVMTQSPSSLSVSAGEKVTMSCKSSQSLLNNGNQKNYLAWYQQKPGQPPKLLIYGASTRESGVPDRFTGSGSGTDFALTISSVQAEDLAVYYCQNDLYYPFTFGSGTKLDIKR was 27600

Note to self: Average fluorescence intensity recorded for 17B10 (hybridoma clone, murine CLDN18.2 antigen-binding protein) (antibody, V domains shown, Murine monoclonal antibody tested as hybridoma culture supernatant) VH: EVQLQESGPELVKPGASVKMSCKASGYTFTNYIIHWVKQKPGQGLEWIGYINPYTDGPKYNEKFKGRATLTSDKSSSTAYMEFSSLTSEDSAVYYCARLNRGNAMDYWGQGTSVTVSS VL: DIVMTQSPSSLTVTAGEKVTMNCKSSQSLLNSGNQKNYLTWYQQKPGQPPKLLIYWASTRESGVPDRFTGSGSGTDFTLTISSVQAEDLAVYYCQNDYSFPFTFGSGTKLEIKR was 52100

Note to self: Average fluorescence intensity recorded for 7E3 (hybridoma clone, murine CLDN18.2 antigen-binding protein) (antibody, V domains shown, Murine monoclonal antibody tested as hybridoma culture supernatant) VH: EVQLQQSGPELVKPGASVKMSCKASGYTFTNYIIHWVKQKPGQGLEWIGYINPYTDGPKYNEKFKGRATLTSDKSSSTAYMEFSSLTSEDSAVYYCARLNRGNAMDYWGQGTSVTVSS VL: DIVMTQSPSSLTVTVREKVTLSCKSSQSLLNSGNQKNYLTWYQQKPGQPPKLLIYWASTRESGVPDRFTGSGSGTDFTLTISSVQAEDLAVYYCQNVYIYPFTFGAGTKLELKR was 84800

Note to self: Average fluorescence intensity recorded for 3A6 (hybridoma clone, murine CLDN18.2 antigen-binding protein) (antibody, V domains shown, Murine monoclonal antibody tested as hybridoma culture supernatant) VH: EVQLVESGGDLVQPGGSLKLSCAASGFTLSRYGMSWVRQTPDKRLEWVSTIISGGINTYYSDSVKGRFSISRDNARNTLYLQMSSLKSEDTAMYYCGRLYYGNAMDYWGQGTAVTVSS VL: DIVMTQSPSSLTVTAGEKVTMSCKSSQSLLNSGNQKNYLTWYQQKPGQPPKLLIYWASTRESGVPDRFTGSGSGTHFTLTISSVQAEDLAVYYCQNDYSYPLTFGAGTKLELKR was 215000
